Biological target: T1, hORC1(413-511) (Homo sapiens, UniProt Q13415 413-511)
T1 sequence: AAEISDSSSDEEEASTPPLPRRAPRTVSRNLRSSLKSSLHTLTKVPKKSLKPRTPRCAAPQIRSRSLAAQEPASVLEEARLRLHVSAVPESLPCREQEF
Test: fluorescence anisotropy; 100 mM KCl; FA: 20 mM HEPES-KOH pH 7.7, 100 mM KCl (or LiCl), 1 mM EDTA, 1 mM DTT, 25 C, 2 uM DNA, 1:1 fit; NMR: same buffer with 10% D2O, 10 uM DSS, 75 uM DNA, 25 C
Details: protein: recombinant; tags: N-terminal GST (pGEX-6P-1) removed with PreScission protease; label: 5'-FAM (FA); label in NMR not clear; parallel G4, 1 strand
pKd: −log10 of the molar value.
parameter.measured: pKd

INSERT INTO assay_data (binder, assay_result) VALUES
  ('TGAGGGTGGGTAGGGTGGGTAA (structured_DNA) [mtPu22]', 6.51);
